- Tested on: Escherichia coli TOP10;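 note: peptides expressed intracellularly from a pBAD plasmid library in pooled LB shake-flask culture, induced with 0.3% L-arabinose, DNA abundance read by NGS, three biological replicates, DESeq2 with apeglm shrinkage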
- assay: shrunken log2 fold change of peptide-encoding DNA abundance (4.5 h post-induction vs induction); higher = less antimicrobial activity (less host growth inhibition)
- condition-info: time post-induction: 4.5 h; library: site-saturation at positions 5, 18, 19, 20
Label yes (1) when shrunken log2 fold change is at or above -0.01; otherwise label no (0).

residue-codes	label-class
RRIRHRPPRLPRPRPRPKEQPRP	yes (1)
RRIRDRPPRLPRPRPRPRKGPRP	yes (1)
RRIRYRPPRLPRPRPRPGTRPRP	no (0)
RRIRFRPPRLPRPRPRPPGAPRP	yes (1)
RRIRSRPPRLPRPRPRPEWNPRP	yes (1)
RRIRLRPPRLPRPRPRPIDSPRP	no (0)
RRIRHRPPRLPRPRPRPDQQPRP	yes (1)
RRIRWRPPRLPRPRPRPRHMPRP	no (0)
RRIRDRPPRLPRPRPRPLGGPRP	yes (1)
RRIRYRPPRLPRPRPRPLCSPRP	no (0)
RRIRIRPPRLPRPRPRPSIGPRP	no (0)
RRIRMRPPRLPRPRPRPAVVPRP	yes (1)
RRIRARPPRLPRPRPRPFSRPRP	no (0)
RRIRNRPPRLPRPRPRPLSVPRP	no (0)
RRIRVRPPRLPRPRPRPFFDPRP	yes (1)
RRIRERPPRLPRPRPRPEYKPRP	no (0)
RRIRQRPPRLPRPRPRPEELPRP	no (0)
RRIRHRPPRLPRPRPRPIKKPRP	no (0)
RRIRRRPPRLPRPRPRPVDCPRP	yes (1)
RRIRQRPPRLPRPRPRPNQSPRP	no (0)
RRIRMRPPRLPRPRPRPICDPRP	yes (1)
RRIRRRPPRLPRPRPRPWHYPRP	no (0)
